Where do the numbers come from? From ChEMBL document CHEMBL3988442.

ASSAY_TARGET: Shiga toxin 2 (Escherichia coli O157:H7) (UniProt P09385+P09386)
EXPERIMENT: E. coli 0.157:H7 Shiga Toxin SOP - stx2 screening assay
Format: functional
Design: scale not given: direction of the effect not stated beside the values
EXPERIMENTAL_PARAMETERS: 30 µM
# Percent Effect per entry
Give the value, in units of %, as a plain number.

As a guide, the following entries are already answered.
Documented Percent Effect of "Cc1nc(N2CCN(C(=O)c3ccsc3)CC2)c2cnn(C)c2n1" : 0.569

Form: molecule = "N#Cc1cccnc1NCCNC(=O)N1CCCSCC1" ; Percent Effect = 12.8

"CCc1nc(CC(=O)N2CCN(c3cnccn3)CC2)cs1" has a reported Percent Effect of -11.5

More entries:
According to the records, this molecule "O=C(c1cnoc1)N1CCC[C@]2(C[C@@H](OCc3ccccn3)CO2)C1" displays Percent Effect of -20.4

// field: Percent Effect; key: "OCCn1cc(CN2CCN(CCOCC(F)(F)F)CC2)cn1" ; value = 27.3

Entry "CC(C)Oc1ncnc2c1CCN(Cc1cccs1)CC2" , Percent Effect reported as 17.6

For record "CN(C)c1ncc(CN2CCC(c3nnsc3S(C)(=O)=O)CC2)cn1" the listed Percent Effect is 1.96

What the record says about COCC1CN(CC2CC2)Cc2nn(C)cc21 (stereo not drawn) : Percent Effect is -5.39
